tested on: 947758-054-R-J2-PDC spheroid growth, percent test/control; assay: Anticancer human tumor 947758-054-R-J2-PDC patient-derived colon adenocarcinoma cell line growth inhibition [CLK]; conditions: curve of first compound; second compound 1 µM; spheroids with HUVEC and MSC
pIC50: −log10 of the molar value.
Recorded pIC50, one value per entry.

Guide cases for pIC50, answers given:
- compound: "C=CC(=O)Nc1cc(Nc2nccc(-c3cn(C)c4ccccc34)n2)c(OC)cc1N(C)CCN(C)C + CN1CCN(c2cc(C(=O)Nc3cc4cc(-c5cnn(C)c5)ccc4cn3)ccn2)CC1"
  observed.measurement: "> 9.02"
- compound: "Nc1ccccc1NC(=O)c1ccc(CNC(=O)OCc2cccnc2)cc1 + CN1CCN(c2cc(C(=O)Nc3cc4cc(-c5cnn(C)c5)ccc4cn3)ccn2)CC1"
  observed.measurement: "> 7.50"

[Q] What value of pIC50 on 947758-054-R-J2-PDC spheroid growth, percent test/control does COC1C=CCC(C)C(C)S(=O)(=O)NC(=O)c2ccc3c(c2)N(CC2CCC21)CC1(CCCc2cc(Cl)ccc21)CO3 (stereo unspecified) + CN1CCN(c2cc(C(=O)Nc3cc4cc(-c5cnn(C)c5)ccc4cn3)ccn2)CC1 have?
[A] > 7.50

[Q] What value of pIC50 on 947758-054-R-J2-PDC spheroid growth, percent test/control does CC1(C)CCC(CN2CCN(c3ccc(C(=O)NS(=O)(=O)c4ccc(NCC5CCOCC5)c([N+](=O)[O-])c4)c(Oc4cnc5[nH]ccc5c4)c3)CC2)=C(c2ccc(Cl)cc2)C1 + CN1CCN(c2cc(C(=O)Nc3cc4cc(-c5cnn(C)c5)ccc4cn3)ccn2)CC1 have?
[A] > 7.50

[Q] What value of pIC50 on 947758-054-R-J2-PDC spheroid growth, percent test/control does C=C(F)C(=O)N1CCN(c2nc(OCC3CCCN3C)nc3c2CCN(c2cccc4cccc(Cl)c24)C3)CC1CC#N (stereo unspecified) + CN1CCN(c2cc(C(=O)Nc3cc4cc(-c5cnn(C)c5)ccc4cn3)ccn2)CC1 have?
[A] > 7.50

[Q] What value of pIC50 on 947758-054-R-J2-PDC spheroid growth, percent test/control does C#Cc1c(F)ccc2cc(O)cc(-c3ncc4c(N5CC6CCC(C5)N6)nc(OCC56CCCN5CC(F)C6)nc4c3F)c12 (stereo unspecified) + CNC(=O)c1ccc(Nc2nc(OC3CCCC3)c3c(-c4ccc5nc(C)oc5c4)c[nH]c3n2)c(OC)c1 have?
[A] 5.44

====

Test system: 947758-054-R-J2-PDC spheroid growth, percent test/control
Experiment: Anticancer human tumor 947758-054-R-J2-PDC cell line growth inhibition [CLK]; active means viability on the fitted dose curve at most 10% of control; inactive means the rest;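 further: spheroids exposed to compounds for one week before readout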
Conditions: second compound 1 µM; first compound 1 µM; spheroids with HUVEC and MSC
Excerpt: A high-throughput screen of multi-cell type tumor spheroids was designed to identify active combinations of […] and targeted small molecules. Complex spheroids include a stromal component modeled by human endothelial cells (HUVEC) and fibroblasts modeled by human mesenchymal stem cells (MSCs). […] Compounds. […] If the clinical Cmax for an agent had not been determined, the highest concentration tested was 10 microM. […]
Respond using exactly one of the listed classes: active, inactive

Solved entries:
- compound: "COC1C=CCC(C)C(C)S(=O)(=O)NC(=O)c2ccc3c(c2)N(CC2CCC21)CC1(CCCc2cc(Cl)ccc21)CO3 (stereo not drawn) + CN1CCN(c2cc(C(=O)Nc3cc4cc(-c5cnn(C)c5)ccc4cn3)ccn2)CC1"
  group.label: "active"
- compound: "CC(=O)O[C@H]1C(=O)[C@@]2(C)[C@H]([C@H](OC(=O)c3ccccc3)[C@]3(O)C[C@H](OC(=O)[C@H](O)[C@@H](NC(=O)c4ccccc4)c4ccccc4)C(C)=C1C3(C)C)[C@]1(OC(C)=O)CO[C@@H]1C[C@@H]2O + CNC(=O)c1ccc(Nc2nc(OC3CCCC3)c3c(-c4ccc5nc(C)oc5c4)c[nH]c3n2)c(OC)c1"
  group.label: "inactive"
- compound: "C=C(F)C(=O)N1CCN(c2nc(OCC3CCCN3C)nc3c2CCN(c2cccc4cccc(Cl)c24)C3)CC1CC#N (stereo not drawn) + CNC(=O)c1ccc(Nc2nc(OC3CCCC3)c3c(-c4ccc5nc(C)oc5c4)c[nH]c3n2)c(OC)c1"
  group.label: "inactive"
- compound: "CC1(C)CCC(CN2CCN(c3ccc(C(=O)NS(=O)(=O)c4ccc(NCC5CCOCC5)c([N+](=O)[O-])c4)c(Oc4cnc5[nH]ccc5c4)c3)CC2)=C(c2ccc(Cl)cc2)C1 + CN1CCN(c2cc(C(=O)Nc3cc4cc(-c5cnn(C)c5)ccc4cn3)ccn2)CC1"
  group.label: "active"
- compound: "CCCS(=O)(=O)Nc1ccc(F)c(C(=O)c2c[nH]c3ncc(-c4ccc(Cl)cc4)cc23)c1F + CNC(=O)c1ccc(Nc2nc(OC3CCCC3)c3c(-c4ccc5nc(C)oc5c4)c[nH]c3n2)c(OC)c1"
  group.label: "inactive"
- compound: "CC(CO)NC(=O)c1cc(-c2ccc(Cl)cc2)nn(-c2cnn(C)c2)c1=O (stereo not drawn) + CNC(=O)c1ccc(Nc2nc(OC3CCCC3)c3c(-c4ccc5nc(C)oc5c4)c[nH]c3n2)c(OC)c1"
  group.label: "inactive"
- compound: "COc1ccc([C@@H](O)c2cc(-c3ncnc4cc(N5CCOCC5)ccc34)c(F)cc2Cl)nn1 + CN1CCN(c2cc(C(=O)Nc3cc4cc(-c5cnn(C)c5)ccc4cn3)ccn2)CC1"
  group.label: "active"
- compound: "CCCS(=O)(=O)Nc1ccc(F)c(C(=O)c2c[nH]c3ncc(-c4ccc(Cl)cc4)cc23)c1F + CN1CCN(c2cc(C(=O)Nc3cc4cc(-c5cnn(C)c5)ccc4cn3)ccn2)CC1"
  group.label: "active"

[Q] What was the test verdict on CCc1c2c(nc3ccc(O)cc13)-c1cc3c(c(=O)n1C2)COC(=O)[C@]3(O)CC + CNC(=O)c1ccc(Nc2nc(OC3CCCC3)c3c(-c4ccc5nc(C)oc5c4)c[nH]c3n2)c(OC)c1 ?
[A] active

[Q] What was the test verdict on Nc1ccccc1NC(=O)c1ccc(CNC(=O)OCc2cccnc2)cc1 + CNC(=O)c1ccc(Nc2nc(OC3CCCC3)c3c(-c4ccc5nc(C)oc5c4)c[nH]c3n2)c(OC)c1 ?
[A] inactive

[Q] What was the test verdict on Nc1ccn(C2OC(CO)C(O)C2(F)F)c(=O)n1 (stereo not drawn) + CNC(=O)c1ccc(Nc2nc(OC3CCCC3)c3c(-c4ccc5nc(C)oc5c4)c[nH]c3n2)c(OC)c1 ?
[A] active

[Q] What was the test verdict on C=CC(=O)N1CCN(c2nc(=O)n(-c3c(C)ccnc3C(C)C)c3nc(-c4c(O)cccc4F)c(F)cc23)C(C)C1 (stereo not drawn) + CN1CCN(c2cc(C(=O)Nc3cc4cc(-c5cnn(C)c5)ccc4cn3)ccn2)CC1 ?
[A] active

[Q] What was the test verdict on CC(=O)O[C@H]1C(=O)[C@@]2(C)[C@H]([C@H](OC(=O)c3ccccc3)[C@]3(O)C[C@H](OC(=O)[C@H](O)[C@@H](NC(=O)c4ccccc4)c4ccccc4)C(C)=C1C3(C)C)[C@]1(OC(C)=O)CO[C@@H]1C[C@@H]2O + CN1CCN(c2cc(C(=O)Nc3cc4cc(-c5cnn(C)c5)ccc4cn3)ccn2)CC1 ?
[A] active

[Q] What was the test verdict on CC(Nc1ccc2c(c1)OCCn1cc(N3C(=O)OCC3C(F)F)nc1-2)C(N)=O (stereo not drawn) + CNC(=O)c1ccc(Nc2nc(OC3CCCC3)c3c(-c4ccc5nc(C)oc5c4)c[nH]c3n2)c(OC)c1 ?
[A] active

[Q] What was the test verdict on CC1COCCN1c1cc(C2(S(C)(=N)=O)CC2)nc(-c2ccnc3[nH]ccc23)n1 (stereo not drawn) + CN1CCN(c2cc(C(=O)Nc3cc4cc(-c5cnn(C)c5)ccc4cn3)ccn2)CC1 ?
[A] active

====

Tested on: 947758-054-R-J2-PDC spheroid growth, percent test/control
Assay: Anticancer human tumor 947758-054-R-J2-PDC cell line growth inhibition [CLK]; active means viability on the fitted dose curve at most 10% of control; inactive means the rest;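 further: spheroids exposed to compounds for one week before readout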
Settings: second compound 10 µM; first compound 0.0316 µM; spheroids with HUVEC and MSC
Description: A high-throughput screen of multi-cell type tumor spheroids was designed to identify active combinations of […] and targeted small molecules. Complex spheroids include a stromal component modeled by human endothelial cells (HUVEC) and fibroblasts modeled by human mesenchymal stem cells (MSCs). […] Compounds. […] If the clinical Cmax for an agent had not been determined, the highest concentration tested was 10 microM. […]
Respond using exactly one of the listed classes: active, inactive

- compound: "C=CC(=O)N1CCN(c2nc(=O)n(-c3c(C)ccnc3C(C)C)c3nc(-c4c(O)cccc4F)c(F)cc23)C(C)C1 (stereo not given) + CNC(=O)c1ccc(Nc2nc(OC3CCCC3)c3c(-c4ccc5nc(C)oc5c4)c[nH]c3n2)c(OC)c1"
  test.target: "947758-054-R-J2-PDC spheroid growth, percent test/control"
  group.label: "inactive"
- compound: "CC(CO)NC(=O)c1cc(-c2ccc(Cl)cc2)nn(-c2cnn(C)c2)c1=O (stereo not given) + CN1CCN(c2cc(C(=O)Nc3cc4cc(-c5cnn(C)c5)ccc4cn3)ccn2)CC1"
  test.target: "947758-054-R-J2-PDC spheroid growth, percent test/control"
  group.label: "active"
- compound: "CC(CO)NC(=O)c1cc(-c2ccc(Cl)cc2)nn(-c2cnn(C)c2)c1=O (stereo not given) + CNC(=O)c1ccc(Nc2nc(OC3CCCC3)c3c(-c4ccc5nc(C)oc5c4)c[nH]c3n2)c(OC)c1"
  test.target: "947758-054-R-J2-PDC spheroid growth, percent test/control"
  group.label: "inactive"

[Q] What was the test verdict on CC(=O)O[C@H]1C(=O)[C@@]2(C)[C@H]([C@H](OC(=O)c3ccccc3)[C@]3(O)C[C@H](OC(=O)[C@H](O)[C@@H](NC(=O)c4ccccc4)c4ccccc4)C(C)=C1C3(C)C)[C@]1(OC(C)=O)CO[C@@H]1C[C@@H]2O + CNC(=O)c1ccc(Nc2nc(OC3CCCC3)c3c(-c4ccc5nc(C)oc5c4)c[nH]c3n2)c(OC)c1 ?
[A] inactive

[Q] What was the test verdict on COC1C=CCC(C)C(C)S(=O)(=O)NC(=O)c2ccc3c(c2)N(CC2CCC21)CC1(CCCc2cc(Cl)ccc21)CO3 (stereo not given) + CNC(=O)c1ccc(Nc2nc(OC3CCCC3)c3c(-c4ccc5nc(C)oc5c4)c[nH]c3n2)c(OC)c1 ?
[A] inactive

[Q] What was the test verdict on CC1COCCN1c1cc(C2(S(C)(=N)=O)CC2)nc(-c2ccnc3[nH]ccc23)n1 (stereo not given) + CNC(=O)c1ccc(Nc2nc(OC3CCCC3)c3c(-c4ccc5nc(C)oc5c4)c[nH]c3n2)c(OC)c1 ?
[A] inactive

[Q] What was the test verdict on Nc1ccn(C2OC(CO)C(O)C2(F)F)c(=O)n1 (stereo not given) + CNC(=O)c1ccc(Nc2nc(OC3CCCC3)c3c(-c4ccc5nc(C)oc5c4)c[nH]c3n2)c(OC)c1 ?
[A] inactive

[Q] What was the test verdict on CCc1c2c(nc3ccc(O)cc13)-c1cc3c(c(=O)n1C2)COC(=O)[C@]3(O)CC + CNC(=O)c1ccc(Nc2nc(OC3CCCC3)c3c(-c4ccc5nc(C)oc5c4)c[nH]c3n2)c(OC)c1 ?
[A] inactive

[Q] What was the test verdict on O=c1[nH]cc(F)c(=O)[nH]1 + CN1CCN(c2cc(C(=O)Nc3cc4cc(-c5cnn(C)c5)ccc4cn3)ccn2)CC1 ?
[A] active

[Q] What was the test verdict on COc1cccc2c1C(=O)c1c(O)c3c(c(O)c1C2=O)CC(O)(C(=O)CO)CC3OC1CC(N)C(O)C(C)O1 (stereo not given) + CN1CCN(c2cc(C(=O)Nc3cc4cc(-c5cnn(C)c5)ccc4cn3)ccn2)CC1 ?
[A] active
